- Test system: SF-268 CNS
- Test description: NCI tumour cell line growth inhibition, 48 h; in the data active means GI50 below about 0.43 µM; inactive means the rest
Give one outcome, nothing more. List: class 1 (active), class 0 (inactive)

Use the examples below as a reference point.
{"Molecule": "CN(C)CCCn1c(=O)c2ccccc2c2cnc3[nH]ccc3c21", "Discrete label": "class 0"}
{"Molecule": "COc1cc(C2C3=C(COC3=O)N(CCO)c3cc4c(cc32)OCCO4)cc(OC)c1OC (stereo not given)", "Discrete label": "class 1"}
{"Molecule": "C#Cc1cccc(Nc2nc(Cl)nc3cc(NC(=O)CCl)ccc23)c1", "Discrete label": "class 0"}

Exercise: Short answer needed: outcome of this test for `COc1ccc(C(=O)/C=C/c2cc(-c3cc(OC)c(OC)c(OC)c3)n[nH]2)cc1` ?
Key: class 0

Exercise: For `CCCOC(=O)c1c(C)n(C)c2scc[n+]12` , which call appears in the assay record?
Key: class 0

---

- Tested on: HT29 colon
- Test description: NCI tumour cell line growth inhibition, 48 h
Each entry below lists one item and its recorded TGI value.

{"Compound": "COc1cc(OC)cc(C2C3=C(COC3=O)Nc3cc(OC)ccc32)c1 (stereo unspecified)", "Target under test": "HT29 colon", "Observed value": "> 36.6 µM"}
{"Compound": "O=c1[nH]nc(Cc2ccc(Cl)cc2)n1/N=C/c1ccc([N+](=O)[O-])o1", "Target under test": "HT29 colon", "Observed value": "> 41.1 µM"}
{"Compound": "O=C(O)CCNS(=O)(=O)c1ccc2ccccc2c1", "Target under test": "HT29 colon", "Observed value": "> 100 µM"}

Exercise: Answer with the recorded TGI for the compound listed here: `CC1=C(SC#N)S(=O)(=O)N(c2ccccc2)C(C)=C1SC#N`
Key: > 100 µM

Exercise: Input `NCCSCCC(=O)O` , output reported TGI.
Key: > 100 µM

Exercise: # return recorded TGI for entry `CC1(C)CC[C@]2(C(=O)O)CC[C@]3(C)[C@H](C(=O)C=C4[C@@]5(C)C=C(C#N)C(=O)C(C)(C)[C@@H]5CC[C@]43C)[C@@H]2C1`
Key: 6.43 µM

Exercise: Return value of TGI for input CC1OC(=O)C(O)=C1O (stereo unspecified) , no commentary.
Key: > 100 µM

Exercise: For the compound `CCCc1cc(=O)n2c(C(=O)Nc3ccc(F)cc3)c(C(=O)Nc3ccc(F)cc3)sc2n1` , give its reported TGI.
Key: > 160 µM

Exercise: Consider the compound `CC(=O)C(C)(C)CCC(C)(C)C(C)=O` . State its measured TGI.
Key: > 100 µM

Exercise: State its TGI for this compound: `Cc1ccc(-c2nc(/C=N/Nc3cc(C)nc4ccc(Cl)cc34)c(C)o2)cc1`
Key: 2.5 µM

Exercise: Provide only the value of recorded TGI for `CC(C)CCOC(=O)NC(Nc1ccc(F)cc1)(C(F)(F)F)C(F)(F)F`
Key: > 100 µM

---

A collection of molecules and their measured TGI
- System: A549 NSCLC
- Test description: NCI tumour cell line growth inhibition, 48 h

{"Molecule": "COC1=CC(C2c3cc4c(cc3[C@@H](Nc3ccc(F)cc3)C3COC(=O)[C@H]23)OCO4)=CC(=O)C1=O (stereo not given in full)", "Observed value": "20.4 µM"}

Exercise: Indicate the recorded TGI value for this molecule: `CCN(CC)C(=O)Cn1c2c(c3ccccc31)CCCC2`
Key: > 100 µM

Exercise: Retrieve TGI measured for `COc1cc2c(c(OC)c1OC)-c1ccc(SC)c(=O)cc1[C@@H](NCc1ccc([N+](=O)[O-])cc1)CC2` and print it.
Key: > 100 µM

Exercise: State its TGI for this molecule: NC(N)=NC1C(O)C(O)C(O)C(N=C(N)N)C1O (stereo not given)
Key: > 100 µM

Exercise: Could you please provide reported TGI for CCSC1=CC2(O)N(CCc3ccc(OC)c(OC)c3)C(=O)CC2(C(=O)OC)CC1=O (stereo not given) ? Thanks!
Key: > 100 µM

Exercise: Return TGI (reported value) for this molecule: `NC1c2ccccc2Nc2ccccc21`
Key: 19.8 µM

Exercise: // Input: `CCCCN(C)/N=N/c1nc[nH]c1C(N)=O` . Output its TGI only.
Key: > 100 µM

Exercise: Fill in reported TGI for this entry: O=C(NNc1ccc(Cl)cc1)C1CCC(CNS(=O)(=O)c2ccccc2Cl)CC1 (stereo not given)
Key: > 100 µM

Exercise: Tell us which TGI value is on record for `CC/C(Cc1ccccc1)=C(\c1ccc(OCCN2CCCC2)cc1)c1ccc(OC(=O)NCc2ccccc2)cc1`
Key: 3.47 µM

Exercise: Could you please provide reported TGI for `COc1ccccc1NC(=O)CC(=O)NN` ? Thanks!
Key: > 100 µM

Reference for the values: PubChem BioAssay (NCI)
